Biological target: T1, human GIP receptor (human, UniProt P48546 22-466)
T1 construct: whole, on cells; also called hGIPR
T1 sequence (looked up): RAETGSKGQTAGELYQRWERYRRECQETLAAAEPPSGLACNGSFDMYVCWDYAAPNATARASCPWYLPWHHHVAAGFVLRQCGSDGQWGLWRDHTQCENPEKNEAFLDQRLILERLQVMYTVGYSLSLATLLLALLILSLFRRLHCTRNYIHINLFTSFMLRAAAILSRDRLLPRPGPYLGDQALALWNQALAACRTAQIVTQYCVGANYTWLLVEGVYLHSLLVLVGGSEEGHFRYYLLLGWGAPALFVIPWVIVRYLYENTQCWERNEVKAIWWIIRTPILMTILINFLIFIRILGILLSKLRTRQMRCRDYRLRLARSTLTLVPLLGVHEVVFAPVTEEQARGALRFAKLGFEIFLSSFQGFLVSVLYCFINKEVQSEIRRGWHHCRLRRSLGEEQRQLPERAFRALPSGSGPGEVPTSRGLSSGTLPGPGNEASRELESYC
Test: competition binding vs 125I-GIP(1-42), COS-7 cells transfected with human GIP receptor
Ends that are not written are not given here.
property.measured: logIC

Item TFISDYSIAMDKIHQQDFVNWLLAQK-NH2 (also called human GIP(5-30)NH2; hGIP5-30) [GIP(5-30)NH2] has what recorded logIC?
-8.23

Recorded logIC of ISDYSIAMDKIHQQDFVNWLLAQK-NH2 (also called human GIP(7-30)NH2; hGIP(7-30)) [GIP(7-30)NH2] , please.
-7.58

// returns reported logIC for input AEGTFISDYSIAMDKIHQQDFVNWLLAQK-NH2 (also called human GIP(2-30)NH2; hGIP(2-30)) [GIP(2-30)NH2]
-7.85

Item FISDYSIAMDKIHQQDFVNWLLAQK-NH2 (also called human GIP(6-30)NH2; hGIP(6-30)) [GIP(6-30)NH2] has what recorded logIC?
-6.46
